target: HLA-A0101 (Homo sapiens, UniProt P04439, A114D/A174V/A182V/D101N/D185E/E176A/E190D/L180R/Q94H/R68K/S129P/T187R/V100A/V91M/W191G); construct: expressed in transfected cells; host or cells: HMy2.CIR; experiment: Peptide competitive binding assay, transfected HMy2.CIR cells, reference YLEPAK(FITC)AKY; conditions: HLA-A0101 HMy2.CIR cells; competitor peptide 15μM; 24 hours; flow cytometry
Residues, ends and D or L forms follow the SMILES beside them.
measure name: inhibition at 15 µM (%)
Please respond with the number in % and leave the unit unwritten.

Exercise: GET /values?readout=inhibition at 15 µM&item= CSCC[C@H](NC(=O)[C@@H](N)CCSC)C(=O)N[C@@H](Cc1c[nH]c2ccccc12)C(=O)N[C@@H](Cc1ccc(O)cc1)C(=O)N[C@@H](Cc1c[nH]c2ccccc12)C(=O)NCC(=O)N1CCC[C@H]1C(=O)N[C@@H](CO)C(=O)N[C@@H](CC(C)C)C(=O)O [Epitope P72]
Solution: 9

Exercise: GET /values?readout=inhibition at 15 µM&item= CSCC[C@H](NC(=O)[C@@H](N)CCSC)C(=O)N[C@@H](Cc1c[nH]c2ccccc12)C(=O)N[C@@H](Cc1ccccc1)C(=O)N[C@@H](Cc1c[nH]c2ccccc12)C(=O)NCC(=O)N1CCC[C@H]1C(=O)N[C@@H](CO)C(=O)N[C@@H](CC(C)C)C(=O)O [Epitope P71] (H-MMWFWGPSL-OH; N-terminus and C-terminus assumed)
Solution: 7.89

Exercise: GET /values?readout=inhibition at 15 µM&item= CC[C@H](C)[C@H](NC(=O)[C@H](CC(C)C)NC(=O)[C@H](CCCCN)NC(=O)[C@H](C)NC(=O)CNC(=O)[C@H](CO)NC(=O)[C@H](CCCNC(=N)N)NC(=O)[C@H](CO)NC(=O)[C@@H](N)CCCNC(=N)N)C(=O)O [Epitope P89] (H-RSRSGAKLI-OH; N-terminus and C-terminus assumed)
Solution: 9

----------
target: HLA-A2402 (Homo sapiens, UniProt P04439, D101N/D140Y/D185E/E176V/E190D/F33S/G103R/G107R/I119L/I121M/I306V/K335N/L105A/L180Q/L300P/N151K/N90K/Q86E/Q94H/R106L/R138H/R89G/T104I/T345S/V100E/W191G/Y123F); assay: cell-based; assay type: binding; conditions: HLA-A2402 HMy2.CIR cells; competitor peptide 5μM; 24 hours; flow cytometry
Residues, ends and D or L forms follow the SMILES beside them.
The threshold is inclusive: inhibition at 5 µM of exactly 70% counts as YES; values below receive NO.

A selection of reference data follows.
molecule="CC(C)C[C@H](NC(=O)[C@H](CO)NC(=O)[C@H](CC(C)C)NC(=O)[C@@H](N)Cc1c[nH]cn1)C(=O)N[C@@H](CCCNC(=N)N)C(=O)NCC(=O)N[C@@H](CC(C)C)C(=O)N1CCC[C@H]1C(=O)N[C@H](C(=O)O)C(C)C [Epitope P100] (H-HLSLRGLPV-OH; N-terminus and C-terminus assumed)" assigned_class=NO
molecule="CC(C)[C@H](N)C(=O)N[C@@H](CS)C(=O)N[C@@H](C)C(=O)N1CCC[C@H]1C(=O)N[C@@H](C)C(=O)N1CCC[C@H]1C(=O)N[C@@H](CS)C(=O)N[C@@H](CC(N)=O)C(=O)N[C@@H](Cc1ccccc1)C(=O)O [Epitope P26] (H-VCAPAPCNF-OH; N-terminus and C-terminus assumed)" assigned_class=NO

Exercise: Could you please find out whether CC[C@H](C)[C@H](N)C(=O)N[C@@H](CC(C)C)C(=O)N[C@@H](CS)C(=O)N[C@@H](Cc1c[nH]c2ccccc12)C(=O)NCC(=O)N[C@@H](CCC(=O)O)C(=O)N[C@@H](CC(C)C)C(=O)N[C@@H](CCSC)C(=O)N[C@@H](CC(N)=O)C(=O)N[C@@H](CC(C)C)C(=O)O [Epitope P74] (H-ILCWGELMNL-OH; N-terminus and C-terminus assumed) has inhibition at 5 µM that meets 70% or exceeds it?
Solution: NO

Exercise: Could you please find out whether CC(C)C[C@H](NC(=O)[C@@H](NC(=O)[C@H](Cc1ccccc1)NC(=O)[C@@H](NC(=O)[C@H](CCCCN)NC(=O)[C@H](CC(C)C)NC(=O)[C@@H](N)CCCNC(=N)N)C(C)C)C(C)C)C(=O)NCC(=O)NCC(=O)O [Epitope P93] (H-RLKVFVLGG-OH; N-terminus and C-terminus assumed) has inhibition at 5 µM that meets 70% or exceeds it?
Solution: NO

Exercise: Could you please find out whether CC(C)C[C@H](NC(=O)[C@H](Cc1ccc(O)cc1)NC(=O)[C@H](CCCCN)NC(=O)[C@@H](NC(=O)[C@@H](NC(=O)[C@H](CCCCN)NC(=O)[C@@H]1CCCN1C(=O)[C@H](Cc1ccc(O)cc1)NC(=O)[C@@H](N)Cc1ccccc1)C(C)C)[C@@H](C)O)C(=O)O [Epitope P25] (H-FYPKVTKYL-OH; N-terminus and C-terminus assumed) has inhibition at 5 µM that meets 70% or exceeds it?
Solution: YES

Exercise: Could you please find out whether CC[C@H](C)[C@H](NC(=O)CNC(=O)[C@H](CC(C)C)NC(=O)[C@H](CO)NC(=O)[C@H](CC(C)C)NC(=O)[C@H](CC(C)C)NC(=O)[C@@H](N)Cc1ccccc1)C(=O)N[C@@H](Cc1c[nH]cn1)C(=O)N[C@@H](CC(C)C)C(=O)O [Epitope P10] has inhibition at 5 µM that meets 70% or exceeds it?
Solution: NO

Exercise: Could you please find out whether CC(C)C[C@H](N)C(=O)N[C@@H](Cc1ccc(O)cc1)C(=O)N[C@@H](CO)C(=O)N[C@@H](CO)C(=O)N[C@H](C(=O)N[C@H](C(=O)N1CCC[C@H]1C(=O)N[C@@H](CS)C(=O)N[C@@H](Cc1ccccc1)C(=O)O)C(C)C)[C@@H](C)O [Epitope P55] (H-LYSSTVPCF-OH; N-terminus and C-terminus assumed) has inhibition at 5 µM that meets 70% or exceeds it?
Solution: YES

Exercise: Could you please find out whether CC[C@H](C)[C@H](NC(=O)[C@H](Cc1c[nH]cn1)NC(=O)[C@H](Cc1ccccc1)NC(=O)[C@@H](N)Cc1c[nH]c2ccccc12)C(=O)N[C@@H](CO)C(=O)N[C@@H](CS)C(=O)N[C@@H](CC(C)C)C(=O)N[C@H](C(=O)N[C@@H](Cc1ccccc1)C(=O)O)[C@@H](C)O [Epitope P52] has inhibition at 5 µM that meets 70% or exceeds it?
Solution: NO

Exercise: Could you please find out whether CC(C)C[C@H](NC(=O)[C@H](C)NC(=O)[C@H](CO)NC(=O)[C@H](C)NC(=O)[C@@H](NC(=O)[C@H](CC(=O)O)NC(=O)[C@H](CC(C)C)NC(=O)[C@@H](N)CC(C)C)[C@@H](C)O)C(=O)N[C@@H](Cc1ccc(O)cc1)C(=O)O [Epitope P111] has inhibition at 5 µM that meets 70% or exceeds it?
Solution: NO

Exercise: Could you please find out whether CC(C)C[C@H](NC(=O)[C@H](Cc1ccc(O)cc1)NC(=O)[C@H](CCC(=O)O)NC(=O)[C@H](CC(C)C)NC(=O)[C@@H](NC(=O)[C@@H](NC(=O)[C@@H](N)CCC(=O)O)[C@@H](C)O)C(C)C)C(=O)N[C@H](C(=O)N[C@@H](CO)C(=O)N[C@H](C(=O)O)C(C)C)C(C)C [Epitope P118] (H-ETVLEYLVSV-OH; N-terminus and C-terminus assumed) has inhibition at 5 µM that meets 70% or exceeds it?
Solution: NO

Exercise: Could you please find out whether CC(C)C[C@H](N)C(=O)N[C@@H](Cc1ccc(O)cc1)C(=O)N[C@@H](CO)C(=O)N[C@@H](CO)C(=O)N[C@H](C(=O)N[C@H](C(=O)N1CCC[C@H]1C(=O)N[C@H](C(=O)N[C@@H](Cc1ccccc1)C(=O)O)C(C)C)C(C)C)[C@@H](C)O [Epitope P56] (H-LYSSTVPVF-OH; N-terminus and C-terminus assumed) has inhibition at 5 µM that meets 70% or exceeds it?
Solution: YES

----------
molecular target: HLA-A0203 (Homo sapiens, UniProt P04439, A173T/D140Y/D185E/D98H/E277Q/G131W/G231S/I119V/I121R/I166T/I218V/L180W/L300P/L318F/N151K/N90K/P208A/P217A/Q86G/Q94H/R138H/R169H/T345S); construct: expressed in transfected cells; host or cells: HMy2.CIR; test: cell-based; assay type: binding; conditions: HLA-A0203 HMy2.CIR cells; competitor peptide 5μM; 24 hours; flow cytometry
Residues, ends and D or L forms follow the SMILES beside them.
measure name: inhibition at 5 µM (%)
Please respond with the number in % and leave the unit unwritten.

These solved cases illustrate the format of a correct answer.
molecule="CC(C)C[C@H](NC(=O)[C@@H](N)Cc1ccccc1)C(=O)N1CCC[C@H]1C(=O)N[C@@H](CO)C(=O)N[C@@H](CC(=O)O)C(=O)N[C@@H](Cc1ccccc1)C(=O)N[C@@H](Cc1ccccc1)C(=O)N1CCC[C@H]1C(=O)N[C@@H](CO)C(=O)N[C@H](C(=O)O)C(C)C [Epitope P1]" measure_name="inhibition at 5 µM" endpoint_unit=% measurement=87.3
molecule="CC[C@H](C)[C@H](NC(=O)[C@H](Cc1c[nH]c2ccccc12)NC(=O)[C@@H](NC(=O)CNC(=O)[C@H](Cc1ccccc1)NC(=O)[C@H](CO)NC(=O)[C@@H](NC(=O)[C@H](CC(C)C)NC(=O)[C@@H](N)Cc1ccc(O)cc1)C(C)C)C(C)C)C(=O)O [Epitope P11]" measure_name="inhibition at 5 µM" endpoint_unit=% measurement=89.4
molecule="CC[C@H](C)[C@H](N)C(=O)N[C@@H](CC(C)C)C(=O)N[C@@H](CO)C(=O)N[C@H](C(=O)N[C@@H](CC(C)C)C(=O)N1CCC[C@H]1C(=O)N[C@@H](CCC(=O)O)C(=O)N[C@H](C(=O)N[C@H](C(=O)N[C@H](C(=O)O)C(C)C)[C@@H](C)O)[C@@H](C)O)[C@@H](C)O [Epitope P96]" measure_name="inhibition at 5 µM" endpoint_unit=% measurement=100
molecule="CSCC[C@H](NC(=O)CNC(=O)[C@H](CCC(N)=O)NC(=O)[C@H](Cc1ccc(O)cc1)NC(=O)[C@H](CC(=O)O)NC(=O)[C@H](CC(C)C)NC(=O)[C@@H](N)CC(C)C)C(=O)N[C@@H](CC(C)C)C(=O)N1CCC[C@H]1C(=O)N[C@H](C(=O)O)C(C)C [Epitope P95]" measure_name="inhibition at 5 µM" endpoint_unit=% measurement=97.7
molecule="CC[C@H](C)[C@H](NC(=O)[C@H](CO)NC(=O)[C@@H]1CCCN1C(=O)[C@H](Cc1ccccc1)NC(=O)[C@H](Cc1ccccc1)NC(=O)[C@H](CC(=O)O)NC(=O)[C@H](CO)NC(=O)[C@@H]1CCCN1C(=O)[C@H](CC(C)C)NC(=O)[C@@H](N)Cc1ccccc1)C(=O)O [Epitope P31]" measure_name="inhibition at 5 µM" endpoint_unit=% measurement=86.3
molecule="CC[C@H](C)[C@H](NC(=O)[C@H](C)NC(=O)[C@@H](N)CO)C(=O)N[C@@H](CO)C(=O)N[C@@H](CO)C(=O)N[C@H](C(=O)N[C@@H](CO)C(=O)N[C@@H](CO)C(=O)N[C@@H](CCCCN)C(=O)O)[C@@H](C)CC [Epitope P39] (H-SAISSISSK-OH; N-terminus and C-terminus assumed)" measure_name="inhibition at 5 µM" endpoint_unit=% measurement=2.61

Query molecule follows.
Exercise: GET /values?readout=inhibition at 5 µM&item= CC(C)C[C@H](NC(=O)[C@H](CO)NC(=O)[C@H](CC(C)C)NC(=O)[C@@H](N)Cc1c[nH]c2ccccc12)C(=O)N[C@@H](CC(C)C)C(=O)N[C@H](C(=O)N1CCC[C@H]1C(=O)N[C@@H](Cc1ccccc1)C(=O)N[C@H](C(=O)O)C(C)C)C(C)C [Epitope P7]
Solution: 96.3
